For each entry below, report its normalized cell count value.
# TEST DESCRIPTION: insulin gene promoter stimulation in islet cells – imaging, TRM-6 cells, eGFP reporter, cell count, primary screen (AID 1296);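 on normalized cell count: cells counted after 48 h compound exposure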
# CONDITION: at 2 µM; measured here: cell count (toxicity)
Out of some 130,000 compounds screened, about 1,000 (0.77%) were called active. Not shown: some 1% with an inconclusive outcome. The sample holds actives, similar compounds and a random draw of the others, so the mix is not that of the screen.
The response must be a number in % with no trailing unit.

[in] # normalized cell count lookup, item `Cc1ccc(NC(=O)c2ccn(C(=O)Nc3ccccc3)n2)c(C)c1`
[out] 123

[in] Suppose we examine the compound `COc1ccc(N2CCN(C(=O)COc3ccc4c(C)cc(=O)oc4c3)CC2)cc1` ; what normalized cell count value has been reported?
[out] 132

[in] Need normalized cell count, item `O=C(CCCN1C(=O)/C(=C/c2ccco2)SC1=S)Nc1ccccc1`
[out] 158

[in] Would you mind telling me what normalized cell count value was observed for `CC(C)C[C@@H](N)c1nnc(SCC(=O)c2ccc(Cl)cc2)o1` ?
[out] 62.6

[in] Request the reported normalized cell count associated with `CN(CC(=O)NC1CCCC1)S(=O)(=O)c1cnc[nH]1`
[out] 85

[in] Please give the measured normalized cell count for this compound: `O=C(NC1CC1)c1cccc(Br)c1`
[out] 91.1

[in] Find the recorded normalized cell count belonging to `COc1cc(OC)cc(-c2nc3ccccc3c(=O)n2NC(=O)c2cccnc2Cl)c1` and report it.
[out] 107

[in] Which normalized cell count value is on record for `C=CCOc1c(Br)cc(/C=N\n2nnnc2N)cc1OC` ?
[out] 53.2

[in] Given `COC(=O)Nc1sc2nc(C)cc(C)c2c1-n1cccc1` , state its recorded normalized cell count.
[out] 74.8

[in] Name the recorded normalized cell count for `CN1CCN(C(=O)/C(=C\c2ccc3c(c2)OCO3)NC(=O)c2cccs2)CC1` .
[out] 121

[in] What value of normalized cell count has been reported for the following compound? `COc1ccc(C)cc1Nc1nc(-c2c(C)[nH]c3ccccc23)cs1`
[out] 68.8

###

# TEST DESCRIPTION: insulin gene promoter stimulation in islet cells – imaging, TRM-6 cells (human fetal islet line), eGFP reporter, cell count, primary screen (AID 1296)
# CONDITION: at 2 µM, plate-scaled: unstimulated 0, stimulated control 100
The campaign covered roughly 130,000 compounds. About 1,000 (0.77%) were called active. About 1% were inconclusive and are not listed.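 Rule for the calls: active = activation at 2 µM above a set limit, confirmed on inspection of the cell images; inconclusive = above the set limit but not confirmed on image inspection; inactive = the rest.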 The full list was thinned out, with actives kept by preference.
Reply using exactly one outcome from t for active, f for inactive

[in] Answer briefly: the call reported for Cc1ccc(C2CC2C(=O)NN)cc1 (configuration not stated) in this assay.
[out] f

[in] Tell me the assay call for `COc1cccc(OC)c1C(=O)Nc1ccc(Cc2ccncc2)cc1` please.
[out] f

[in] Would you mind telling me which call this test gave `Cc1ccc(-n2ncc3c(Nc4cccc(C(=O)O)c4)ncnc32)cc1` ?
[out] f

[in] What is the recorded call for this compound in the test? CC(C)(C)N1CC(c2nc3ccccc3n2Cc2ccc(F)cc2)CC1=O (configuration not stated)
[out] t

[in] // param item: `COC(=O)c1ccccc1NC(=S)NC(=O)c1ccccc1F` ; yields the recorded call
[out] f

[in] Tell me the assay call for `O=C(Nc1ccccc1N1CCCCC1)c1cccc(F)c1` please.
[out] f

[in] What outcome does the record of this test show for `COC(=O)c1ccc(CSc2ccccc2C)o1` ?
[out] t

[in] Status in this test for `CCn1c(SCC(=O)Nc2nccs2)nnc1-c1ccco1` ?
[out] f

[in] Record request — test call for `Cc1cccc(C(=O)Nc2ccc(CC(=O)O)cc2)c1`
[out] f

[in] Field: outcome | Entry: `Cc1cccc(C(=O)Nc2ccc(C(=O)/C=C/c3cccs3)cc2)c1`
[out] f

[in] Hey, what did the test say about `CC(C)NC(=O)C(=O)N/N=C/c1ccco1` ?
[out] f

[in] Tell me the assay call for CC(C)CCNC(=O)CC1C(=O)N(Cc2ccccc2)C(C)c2nc3ccccc3n21 (configuration not stated) please.
[out] f

[in] State the result this test recorded for `O=C(COc1ccccc1)N1CCc2ccccc2C1` .
[out] f

[in] Kindly provide the recorded test outcome for the following compound: `COc1ccc(OCC(=O)N2CCN(C(=O)c3cccs3)CC2)cc1`
[out] f

[in] Please state the recorded outcome for this compound: `O=C(Nc1ccccc1)c1ccc2nsnc2c1`
[out] t

[in] Per the records of this test, what outcome belongs to `COc1ccc(OCC(=O)N2CCN(C(=O)COc3ccccc3)CC2)cc1` ?
[out] t

[in] # fetch the recorded call for `CN1CCC(OC(=O)COc2ccc(Cl)cc2Cl)CC1` here
[out] t

[in] Query: recorded result category for `COC(=O)[C@H]1Cc2cnoc2C[C@]1(C)C(=O)O` in this test
[out] f

[in] Each compound tested received a call. Report the one for `N#C/C(=C/c1ccc(N2CCOCC2)o1)C(=O)N1CCOCC1` .
[out] f

[in] What did this assay record as the result for `CC(=O)c1cc(-c2ccccc2)n(CCC(=O)NC2CCCCCC2)c1C` ?
[out] f

[in] Status in this test for `O=C(NCc1ccco1)c1nn2cccnc2c1Cl` ?
[out] f

[in] Recorded test call requested for CC(O)c1nc2ccccc2n1Cc1ccc([N+](=O)[O-])cc1 (configuration not stated)
[out] f

[in] Check the results log: what was the call for `COc1cc(NS(=O)(=O)c2ccc(N=Cc3c(C)[nH]n(-c4ccccc4)c3=O)cc2)nc(OC)n1` ?
[out] f

[in] Tell me the assay call for `CCN1/C(=C\c2ccc3ccccc3[n+]2CC)Sc2cc(C)ccc21` please.
[out] t

[in] Hi team, can someone confirm the assay call for `COc1ccc(N2CCN(C(=O)c3ccc4c(Cl)c5c(nc4c3)CCCC5)CC2)cc1` ?
[out] f

[in] Just curious, what result did `COc1ccc(-c2nc3ccccc3n2CCC(C)C)cc1OC` get here?
[out] f

[in] Answer briefly: the call reported for CC(C)CCC(C)NC(=O)c1ccc2nccnc2c1 (configuration not stated) in this assay.
[out] f

[in] Returns: the outcome recorded for CCC(C)(C(=O)NC1CCCCC1)N(C)C(=O)c1ccc2c(c1)OCO2 (configuration not stated) in this assay.
[out] f

[in] Query: recorded result category for `O=C(Cc1coc2ccc3ccccc3c12)NCc1cccs1` in this test
[out] f

[in] State the result this test recorded for `O=C(CN1CCOCC1)N1CCCc2c1c(=O)oc1ccc(OCc3ccccc3)cc21` .
[out] f

[in] Per the assay record, what outcome was assigned to COc1ccc(C2CC(c3cccs3)Nc3nnnn32)cc1 (configuration not stated) ?
[out] f

[in] Check the results log: what was the call for `COC(=O)c1ccc(Cc2ccccc2)o1` ?
[out] f

[in] Fill in: this test's call for CCOc1ccc(N2C(=O)Nc3ccccc3C2(O)C(=O)NCc2ccco2)cc1 (configuration not stated) is ___
[out] f

[in] Dear colleague, could you share the recorded outcome for `O=C(c1ccccc1)c1ccc2nc(N3CCCCC3)c3nncn3c2c1` when you have a moment?
[out] t

[in] // outcome(item) with item = O=C(CSc1nn(-c2ccc(F)cc2)c(=S)s1)NC1CCS(=O)(=O)C1 (configuration not stated)
[out] f

[in] Which outcome was entered for the compound `CCN(CC)C(=O)CSc1ncnc2c1cnn2-c1ccccc1` in this test?
[out] f

[in] Give the logged outcome of this assay for the following compound: COc1cccc(NC(=O)CN(C)C(C)C(=O)Nc2ccc(C#N)cc2)c1 (configuration not stated)
[out] f

[in] Short answer needed: outcome of this test for `Cc1nc2scc(-c3cccs3)c2c(=O)n1N` ?
[out] f

[in] Given `N#C/C(=C/c1ccc(N2CCCCC2)o1)C(=O)NCCc1c[nH]c2ccccc12` , state the outcome it received in this test.
[out] t

[in] Please state the recorded outcome for this compound: `Cc1ccc(C(=O)N/C(=C/c2cccs2)C(=O)N2CCCCC2)cc1`
[out] f

[in] Outcome logged for Cc1nn(-c2ccccc2)c(C)c1/C=C/C(=O)OC(C)C(N)=O (configuration not stated) in this assay:
[out] f

[in] # outcome recorded in this test, key = `CCCCc1nc(NCc2ccccc2)c(C#N)c2c1CCCC2`
[out] f

[in] Hey, what did the test say about `Cc1ccc(O)c(-c2cc(C(=O)NCc3ccccc3)[nH]n2)c1` ?
[out] f

[in] For `COC(=O)c1ccc(COC(=O)c2c(C)nn(Cc3ccccc3Cl)c2Cl)o1` , what call appears in the results of this test?
[out] f

[in] I would be grateful if you could indicate the recorded call for CC1(C)C2CC=C(/C=N/NC(=O)c3ccc(Cl)cc3)C1C2 (configuration not stated) .
[out] f

[in] I'd appreciate the recorded outcome for `CC(C)(C)NCCCOc1ccc(Cl)cc1C(C)(C)C` from this test.
[out] f

[in] Which result was noted for this compound in the test: `CCN(CC)CCn1c(/N=C/c2cc(Br)ccc2O)nc2ccccc21`
[out] f
